- measurement protocol: method code SF, from DOI: 10.1016/0360-3016(86)90226-9, PMID: 3744928
- test conditions: pH 7.4
Kindly state logD for each of the entries shown.

// O=[N+]([O-])c1ncn([C@H]2O[C@H](CO)[C@@H](O)[C@H]2O)n1 : logD value = -1.54

// O=C(Cn1cnc([N+](=O)[O-])n1)NCCCO : logD value = -1.24

// O=[N+]([O-])c1ncn(CC(O)CCl)n1 (stereo unspecified) : logD value = 0.05

// O=[N+]([O-])c1nccn1CC(O)CN1CC1 (stereo unspecified) : logD value = -0.66

// CCOCC(O)Cn1cnc([N+](=O)[O-])n1 (stereo unspecified) : logD value = -0.07

// COC(=O)Cn1cnc([N+](=O)[O-])n1 : logD value = -0.38

###

Kindly state logD for each of the entries shown.
- measurement protocol: method code SF-HPLC, from DOI: 10.1021/jm100498u, PMID: 20704351
- test conditions: pH 7.4
Answer with the value's number alone.

// C[C@H](c1ccccc1)n1cncc1C(=O)OCc1ccc(C2(C(F)(F)F)N=N2)cc1 : logD value = 4.3

// CCCCCC1(CCO)N=N1 : logD value = 2.55

// C[C@H](c1ccccc1)n1cncc1C(=O)OCc1ccc(C(=O)c2ccccc2)cc1 : logD value = 4.4

// C[C@H](c1ccccc1)n1cncc1C(=O)OCCC1(C)N=N1 : logD value = 3.6

###

- measurement protocol: method code SF-AS, from DOI: 10.1021/bi00405a042
readout kind: logP
Answer with the value's number alone.

// CNC(=O)CCc1ccccc1 : logP value = 1.17

// CNC(=O)CCc1c[nH]c2ccccc12 : logP value = 1.23

###

- measurement protocol: method code SF-AS, from DOI: 10.1584/jpestics.8.69
readout kind: logP
Answer with the value's number alone.

// ClC(Cl)C(c1ccccc1)c1ccccc1 : logP value = 4.51

###

- measurement protocol: method code SF-RC, from DOI: 10.1016/s0022-2275(20)42614-8, PMID: 2280184
- test conditions: pH 1.0
readout kind: logD
Answer with the value's number alone.

// CC(CCC(=O)NCC(=O)O)C1CCC2C3CCC4CC(O)CCC4(C)C3CC(O)C12C (stereo in doubt) : logD value = 2.25

###

Kindly state logD for each of the entries shown.
- measurement protocol: method code SF-CR, from DOI: 10.1248/cpb.21.2417, PMID: 4779830
- test conditions: pH 6.0
Answer with the value's number alone.

// CN(c1ccccn1)S(=O)(=O)c1ccc(N)cc1 : logD value = 1.3

// CN(C)S(=O)(=O)c1ccc(N)cc1 : logD value = 0.67

###

readout kind: logP
Answer with the value's number alone.

// CCOC(=O)c1ccccc1O : logP value = 2.23

###

readout kind: logP
Answer with the value's number alone.

// COC(=O)C1(O)c2ccccc2-c2ccccc21 : logP value = 1.67

###

Kindly state logP for each of the entries shown.

// CNC12CCCCC1CC(C)c1ccccc12 (configuration not stated) : logP value = 3.96

// CNC12CC(CN)CCC1CCc1ccccc12 (configuration not stated) : logP value = 2

###

- measurement protocol: method code SF-AS, from DOI: 10.1211/0022357011776199, PMID: 11428660
- test conditions: pH 7.4
readout kind: logD
Answer with the value's number alone.

// Cc1ncc([N+](=O)[O-])n1CCOC(=O)CN1CCCCC1 : logD value = 0.51

###

- measurement protocol: method code SF-GLC, from DOI: 10.1016/s0021-9673(00)81319-9
readout kind: logP
Answer with the value's number alone.

// Clc1cccc(-c2ccccc2)c1 : logP value = 4.71

###

- measurement protocol: method code SF, from DOI: 10.1016/j.ejmech.2012.08.015, PMID: 22960698
readout kind: logP
Answer with the value's number alone.

// O=C(CC1OC(=O)c2ccccc21)c1ccc(Cl)c(Cl)c1 (stereo unspecified) : logP value = 4.24

###

- measurement protocol: method code SF-AS, from DOI: 10.1021/jm010817i, PMID: 11806714
- test conditions: pH 7.4
readout kind: logD
Answer with the value's number alone.

// CC(=O)NCc1c(O)c(=O)cc(C)n1C : logD value = -0.82

###

Kindly state logP for each of the entries shown.

// c1ccc2c(c1)CCCN2 : logP value = 2.29

// CCNc1ccccc1 : logP value = 2.16

// CNc1ccc(C)cc1 : logP value = 2.15

###

- measurement protocol: method code SF-AS, from DOI: 10.1016/0045-6535(83)90122-4
readout kind: logP
Answer with the value's number alone.

// O=[N+]([O-])c1cc(Cl)c(Cl)cc1Cl : logP value = 3.48

// O=[N+]([O-])c1ccc(Cl)c(Cl)c1 : logP value = 3.12

// O=[N+]([O-])c1c(Cl)c(Cl)cc(Cl)c1Cl : logP value = 3.89

###

- measurement protocol: method code SF-HPLC, from DOI: 10.1002/jlac.1995199512305
readout kind: logP
Answer with the value's number alone.

// Cc1cn(C2CC(N=[N+]=[N-])C(COP(=O)(OCC3OC(n4cc(C)c(=O)[nH]c4=O)CC3N=[N+]=[N-])C(O)c3ccc(C#N)cc3)O2)c(=O)[nH]c1=O (stereo not given) : logP value = 0.49

// Cc1cn(C2CC(N=[N+]=[N-])C(COP(=O)(OCC3OC(n4cc(C)c(=O)[nH]c4=O)CC3N=[N+]=[N-])C(O)c3ccccc3)O2)c(=O)[nH]c1=O (stereo not given) : logP value = 0.79

// Cc1cn(C2CC(N=[N+]=[N-])C(COP(=O)(OCC3OC(n4cc(C)c(=O)[nH]c4=O)CC3N=[N+]=[N-])C(O)c3ccccc3[N+](=O)[O-])O2)c(=O)[nH]c1=O (stereo not given) : logP value = 0.79

// Cc1cn(C2CC(N=[N+]=[N-])C(COP(=O)(OCC3OC(n4cc(C)c(=O)[nH]c4=O)CC3N=[N+]=[N-])C(O)c3cccc([N+](=O)[O-])c3)O2)c(=O)[nH]c1=O (stereo not given) : logP value = 0.79

// Cc1cn(C2CC(N=[N+]=[N-])C(COP(=O)(OCC3OC(n4cc(C)c(=O)[nH]c4=O)CC3N=[N+]=[N-])C(O)c3c([N+](=O)[O-])cccc3[N+](=O)[O-])O2)c(=O)[nH]c1=O (stereo not given) : logP value = 0.73

###

- measurement protocol: method code SF-AS, from DOI: 10.1016/j.bmc.2004.10.037, PMID: 15653345
Kindly state logP for each of the entries shown.
Answer with the value's number alone.

// C#CCN(C)Cc1ccc(O)c2ncccc12 : logP value = 1.92

// CCOC(=O)C(CS)NCc1ccc(O)c2ncccc12 (stereo not drawn) : logP value = 0.21

// OCCN1CCN(Cc2ccc(O)c3ncccc23)CC1 : logP value = 0.54

###

Kindly state logP for each of the entries shown.
- measurement protocol: method code SF-AS, from DOI: 10.1021/jm00284a014, PMID: 5544400
Answer with the value's number alone.

// S=c1[nH]c2ccccc2[nH]1 : logP value = 1.66

// CCCN1CCCN(CCC)C1=S : logP value = 2.83

// O=c1[nH]c2ccccc2[nH]1 : logP value = 1.12

###

- measurement protocol: method code SF-GLC, from PMID: 6629728
- test conditions: pH 7.4
readout kind: logD

// C1COC2CC2C1 (stereo not drawn) : logD value = 1.26

// C1CC2OC2CC1C1CO1 (stereo not drawn) : logD value = 0.44

// C=CC1CCC2OC2C1 (stereo not drawn) : logD value = 2.08

###

- measurement protocol: method code SF-AS, from DOI: 10.1016/s0021-9673(03)00617-4, PMID: 12830921
readout kind: logP
Answer with the value's number alone.

// CCc1c(C)nc2ccccn2c1=O : logP value = 1.58

###

readout kind: logP
Answer with the value's number alone.

// COC(=O)[C@H]1CSC(c2nc3ccc(O)cc3s2)=N1 : logP value = 2.23

// COc1ccc2nc(C3=N[C@@H](C(=O)O)CS3)sc2c1 : logP value = 1.16

###

- measurement protocol: method code SF, from DOI: 10.1002/em.2850190108, PMID: 1732104
readout kind: logP
Answer with the value's number alone.

// O=[N+]([O-])c1cc([N+](=O)[O-])c2ccccc2c1 : logP value = 2.83

// O=C1Nc2ccc([N+](=O)[O-])cc2C1=O : logP value = 0.47

// O=[N+]([O-])c1ccc2c3c(cccc13)CC2 : logP value = 3.85

// Cc1ccc2cccc([N+](=O)[O-])c2n1 : logP value = 1.99
